Test system: Pseud. aeruginosa EP-01
Assay: Antibacterial activities (MIC), Pseud. aeruginosa EP-01
Assay type: cell-based
Settings: Pseudomonas aeruginosa, EP01
List of MIC values.
Your answer should be a plain number; it is taken to be in µg/mL.

| compound | target-or-test-system | quantitative-readout |
| --- | --- | --- |
| CO[C@@]1(NC(=O)[C@H](NC(=O)c2c(C)oc3cc(O)c(O)cc3c2=O)c2ccc(OCC(=O)O)cc2)C(=O)N2C(C(=O)O)=C(COC(C)=O)CS[C@@H]21 [Example 33] | Pseud. aeruginosa EP-01 | 0.2 |

# input Which MIC is listed for CCn1cc(C(=O)NC(C(=O)NC2C(=O)N3C(C(=O)O)=C(CSc4nnnn4C)CSC23)c2ccc(OCC(=O)O)cc2)c(=O)c2cc(OC(C)=O)c(OC(C)=O)cc21 (centres unmarked) [Example 11] ?
# output 0.1
